# TEST_DESCRIPTION: Cytotoxicity against human HepG2(2.2.15) cells after 8 days by MTT assay
# Assay type: cell-based
Form field: CC50 at 192 h (one value per entry).
Numbers only; they are read as µM.

Past entries and their recorded results:
COc1c(-c2ccc(O[C@@H]3O[C@H](CO)[C@@H](O)[C@H](O)[C@H]3O)c(O)c2)oc2cc(O[C@@H]3O[C@H](CO)[C@@H](O)[C@H](O)[C@H]3O)cc(O)c2c1=O | 7.9
Nc1ccn([C@@H]2CS[C@H](CO)O2)c(=O)n1 | 2400

# input for lookup
Enquiry: Any idea what its CC50 at 192 h is? The compound is O=c1c(CO)c(-c2ccc(O[C@@H]3O[C@H](CO)[C@@H](O)[C@H](O)[C@H]3O)c(O)c2)oc2cc(O)cc(O)c12
Return: 19.7
